Item-by-item account of pKd
target: cyno PD-1_Fc (cyno); assay: bio-layer interferometry (ForteBio), Fab in solution, cyno PD-1_Fc on sensor tip
Lab note — pKd values are minus log10 of concentrations in M.

// solved cases for pKd follow
BINDER: Fab of Antibody B (Fab, V domains shown, Fab in solution in BLI; also called Antibody B (Fab in solution)) VH: QVQLVQSGAEVKKPGASVKVSCKASGYTFEGYYMHWVRQAPGQGLEWMGIINPEGGETSYAQKFQGRVTMTRDTSISTAYMELSRLRSDDTAVYYCAKEGVADGYGLVDVWGQGTMVTVSS VL: EIVLTQSPATLSLSPGERATLSCRASQSVSSYLAWYQQKPGQAPRLLIYDASKRATGIPARFSGSGSGTDFTLTISSLEPEDFAVYYCDQRNNWPLTFGGGTKVEIK
MEASURED_ENDPOINT: pKd
TEST_VALUE: 8.43
//
BINDER: Fab of Antibody E (Fab, V domains shown, Fab in solution in BLI; also called Antibody E (Fab in solution)) VH: QVQLVQSGAEVKKPGASVKVSCKASGYTFTSNYMHWVRQAPGQGLEWMGIINPSEGSTGYAQKFQGRVTMTRDTSTSTVYMELSSLRSEDTAVYYCAKEGVADGYGLVDVWGQGTMVTVSS VL: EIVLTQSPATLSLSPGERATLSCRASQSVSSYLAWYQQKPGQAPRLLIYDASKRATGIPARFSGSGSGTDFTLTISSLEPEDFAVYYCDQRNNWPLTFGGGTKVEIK
MEASURED_ENDPOINT: pKd
TEST_VALUE: 8.48
//
BINDER: Fab of Antibody A (Fab, V domains shown, Fab used in solution in the bio-layer interferometry columns 'Fab in solution'; also called Antibody A (Fab in solution)) VH: QVQLVQSGAEVKKPGASVKVSCKASGYTFTSYYMHWVRQAPGQGLEWMGIINPSGGSTSYAQKFQGRVTMTRDTSTSTVYMELSSLRSEDTAVYYCAKEGVADGYGLVDVWGQGTMVTISS VL: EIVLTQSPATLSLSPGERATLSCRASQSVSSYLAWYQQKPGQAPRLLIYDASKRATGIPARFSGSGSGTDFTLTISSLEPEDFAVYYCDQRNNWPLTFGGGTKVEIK
MEASURED_ENDPOINT: pKd
TEST_VALUE: 7.85
//
BINDER: Fab of Antibody F (Fab, V domains shown, Fab in solution in BLI; also called Antibody F (Fab in solution)) VH: QVQLVQSGAEVKKPGASVKVSCKASGYTFSAYYMHWVRQAPGQGLEWMGIINPDGGSTGYAQKFQGRVTMTRDTSTSTVYMELSSLRSEDTAVYYCAKEGVADGYGLVDVWGQGTMVTVSS VL: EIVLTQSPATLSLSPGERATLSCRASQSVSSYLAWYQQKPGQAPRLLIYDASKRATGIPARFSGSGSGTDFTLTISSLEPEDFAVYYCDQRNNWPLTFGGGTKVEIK
MEASURED_ENDPOINT: pKd
TEST_VALUE: 8.44
//
BINDER: Fab of Antibody C (Fab, V domains shown, Fab in solution in BLI; also called Antibody C (Fab in solution)) VH: QVQLVQSGAEVKKPGASVKVSCKASGYTFTAQYMHWVRQAPGQGLEWMGIINPSGGETGYAQKFQGRVTMTRDTSTSTVYMELSSLRSEDTAVYYCAKEGVADGYGLVDVWGQGTMVTVSS VL: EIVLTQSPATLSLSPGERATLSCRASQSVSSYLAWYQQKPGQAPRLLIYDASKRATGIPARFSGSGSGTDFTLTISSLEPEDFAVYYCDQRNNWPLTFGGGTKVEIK
MEASURED_ENDPOINT: pKd
TEST_VALUE: 8.62

Next up:
Ask | Reported pKd for Fab of Antibody D (Fab, V domains shown, Fab in solution in BLI; also called Antibody D (Fab in solution)) VH: QVQLVQSGAEVKKPGASVKVSCKASGYTFEKYYMHWVRQAPGQGLEWMGIINPDGGSTGYAQKFQGRVTMTRDTSTSTVYMELSSLRSEDTAVYYCAKEGVADGYGLVDVWGQGTMVTVSS VL: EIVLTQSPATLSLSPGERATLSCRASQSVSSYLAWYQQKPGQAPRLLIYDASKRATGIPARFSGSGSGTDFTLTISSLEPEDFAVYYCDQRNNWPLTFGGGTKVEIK : what is it?
Reply | 8.36
